Consider the following proteins and their measured Enzyme Activity Endpoint Assay (purified): Fab′2 readings.
# TARGET_SYSTEM: pooled human IgG (human IgG1, 2, 3 and 4)
Answer in ng/µL, number only, no unit symbol.

protein="PRT-663 (protein) MQITSVWTKGVTPPTPEQFRYNNEDVIHAPYLAHQGWYDITKTFDGKDNLLCGAATAGNMLHWWFDQNKTEIEAYLSKHPEKQKIIFNNQELFDLKEAINTKDSQTNSQLFNYFRDKAFPNLSARQLGVMPDLVLDMFINGYYLNVFKTQSTDVNRPYQDKDKRGGIFDAVFTRGDQTKLLTARHDLKNKGLNEISTLIKQELTEGKALALSHTYANVSISHVINLWGADFNAEGNLEAIYVTDSDANASIGMKKYFVGINASGHVAISAKKIEGENIGAQVLGLFTLSTGKDIWQKLSLEHHHHHH" reported_measurement=825

# input Value lookup for Enzyme Activity Endpoint Assay (purified): Fab′2; key = PRT-422 (protein) MTITSVWTKGVTPPTPEDFRYNNEDVLHAPYVANQGWYDITKTFDGKDNLLCGAATAGNMLHWWFDQNKEEIERYLKKHPEKQKIIFNNQELFDVKAAIDTKDSQTNSKLFNYFRDKAFPNLSARQLGVMPDLVLDMFINGYYLNLGKTQSTDVNRPYQDKDKRGGIFDAVFTRGDQTTLLTARHDLKNKGLNEISDLIKQELTEGKALALSHTYANVRINHVINLWGADFDAEGNLIAIYVTDSDANPSIGMKKYFVGVNANGKVAISAKKIEGDNIGAQVLGLFTLSTGQDIWQKLS
# output 494

Origin of the recorded values: patent US20250027068
